System: platelet aggregation
Procedure Summary: Inhibition of platelet aggregation in human platelet-rich plasma (Born-type aggregometer, ADP or other aggregating agent)
Assay type: cell-based
Applied Conditions: human PRP, 1 min incubation; PGI2 = 1
Mark criterion not met for Potency relative to PGI2 values under 0.05, and criterion met for everything at or above.

>>> class_name("O=C(O)CCCCCCC1C(=O)NC(=O)N1N=CC(O)C1CCCCC1 (centres unmarked) [Compound No. 3]")
"criterion not met"
>>> class_name("O=C(O)CCCCCCC1C(=O)NC(=O)N1NCC(O)c1ccccc1 (centres unmarked) [Compound No. 34]")
"criterion not met"
>>> class_name("CN1C(=O)C(CCCCCCC(=O)O)N(N=CC(O)C2CCCCC2)C1=O (centres unmarked) [25/26]")
"criterion met"
>>> class_name("CN1C(=O)C(CCCCCCC(=O)O)N(NCC(O)C2CCCCC2)C1=O (centres unmarked) [37/38]")
"criterion met"

* * *

Tested on: platelet aggregation
Procedure Summary: Inhibition of platelet aggregation in human platelet-rich plasma (Born-type aggregometer, ADP or other aggregating agent)
Type: cell-based
Applied Conditions: increase in potency after 5 min incubation in PRP
Observation Type: Increase on Incubation (min) 5

>>> result("O=C(O)CCCCCCC1C(=O)NC(=O)N1N=CC(O)c1ccccc1 (single isomer, unassigned)")
"x8"
>>> result("CCCCCC(O)CNN1C(=O)NC(=O)C1CCCCCCC(=O)O (centres unmarked) [35/36]")
"x1.5"
>>> result("CCCCCC(O)C=NN1C(=O)NC(=O)C1CCCCCCC(=O)O (centres unmarked) [Compound No. 17]")
"x2"
>>> result("CCCCCC(O)CNN1C(=O)NC(=O)C1CCCCCCC(=O)O (single isomer, unassigned) [Compound No. 35]")
"x1.5"
>>> result("O=C(O)CCCCCCC1C(=O)NC(=O)N1NCC(O)C1CCCCC1 (centres unmarked) [Compound No. 30]")
"x6"
>>> result("CN1C(=O)C(CCCCCCC(=O)O)N(NCC(O)C2CCCCC2)C1=O (centres unmarked)")
"x7"
>>> result("O=C(O)CCCCCCC1C(=O)NC(=O)N1N=CC(O)C1CCCCC1 (centres unmarked) [Compound No. 3]")
"x7"
>>> result("O=C(O)CCCCCCC1C(=O)NC(=O)N1N=CC(O)C1CCCCC1 (single isomer, unassigned) [Compound No. 6]")
"x5"
>>> result("O=C(O)CCCCCCC1C(=O)NC(=O)N1NCC(O)c1ccccc1 (centres unmarked) [Compound No. 33]")
"x2"
>>> result("O=C(O)CCCCCCC1C(=O)NC(=O)N1NCC(O)C1CCCCC1 (single isomer, unassigned) [compound 29]")
"x7"
>>> result("CN1C(=O)C(CCCCCCC(=O)O)N(N=CC(O)C2CCCCC2)C1=O (centres unmarked)")
"x6"
>>> result("CCCCCC(O)C=NN1C(=O)NC(=O)C1CCCCCCC(=O)O (centres unmarked) [17/18]")
"x2"
>>> result("O=C(O)CCCCCCC1C(=O)NC(=O)N1NCC(O)c1ccccc1 (centres unmarked) [33/34]")
"x2"
>>> result("O=C(O)CCCCCCC1C(=O)NC(=O)N1CCC(O)C1CCCCC1 (centres unmarked) [Compound X, reference compound]")
"x2"

* * *

Listed next: entries and their corresponding Potency relative to PGI2.
System: platelet aggregation
Procedure Summary: Inhibition of platelet aggregation in human platelet-rich plasma (Born-type aggregometer, ADP or other aggregating agent)
Assay type: cell-based
Applied Conditions: human PRP, 1 min incubation; PGI2 = 1
Observation Type: Potency relative to PGI2

>>> result("CCCCCC(O)C=NN1C(=O)NC(=O)C1CCCCCCC(=O)O (centres unmarked) [Compound No. 17]")
0.01
>>> result("CCCCCC(O)C=NN1C(=O)NC(=O)C1CCCCCCC(=O)O (centres unmarked) [17/18]")
0.12
>>> result("O=C(O)CCCCCCC1C(=O)NC(=O)N1CCC(O)C1CCCCC1 (centres unmarked) [Compound X, reference compound]")
0.21
>>> result("O=C(O)CCCCCCC1C(=O)NC(=O)N1NCC(O)c1ccccc1 (centres unmarked) [Compound No. 33]")
0.07
>>> result("CCCCCC(O)CNN1C(=O)NC(=O)C1CCCCCCC(=O)O (centres unmarked) [35/36]")
0.49
>>> result("O=C(O)CCCCCCC1C(=O)NC(=O)N1NCC(O)c1ccccc1 (centres unmarked) [33/34]")
0.17
>>> result("O=C(O)CCCCCCC1C(=O)NC(=O)N1N=CC(O)C1CCCCC1 (single isomer, unassigned) [Compound No. 6]")
0.30
>>> result("CCCCCC(O)CNN1C(=O)NC(=O)C1CCCCCCC(=O)O (single isomer, unassigned) [Compound No. 35]")
0.05

* * *

Test system: systemic arterial blood pressure (BP)
Procedure Summary: Concurrent change in systemic arterial blood pressure in anaesthetized rabbits
Format: in vivo
Applied Conditions: anaesthetized rabbit, i.v. infusion, at the ED50 dose
Listed next: entries and their corresponding Δ BP.
Observation Type: Δ BP (mmHg)

>>> readout_number("O=C(O)CCCCCCC1C(=O)NC(=O)N1CCC(O)C1CCCCC1 (stereo not shown) [Compound X, reference compound]")
-5
>>> readout_number("CCCCC[C@H](O)/C=C/[C@@H]1[C@H]2C/C(=C/CCCC(=O)O)O[C@H]2C[C@H]1O [PGI2, reference compound]")
-20
>>> readout_number("O=C(O)CCCCCCC1C(=O)NC(=O)N1N=CC(O)C1CCCCC1 (single isomer, unassigned) [Compound No. 6]")
0
>>> readout_number("O=C(O)CCCCCCC1C(=O)NC(=O)N1N=CC(O)C1CCCCC1 (stereo not shown) [Compound No. 3]")
0

* * *

System: platelet aggregation
Procedure Summary: Inhibition of platelet aggregation in human platelet-rich plasma (Born-type aggregometer, ADP or other aggregating agent)
Type: cell-based
Applied Conditions: human PRP, 1 min incubation at 37°C before aggregating agent
Note to self: use y only for IC50 readings below 6 ngml^-1; a reading exactly at 6 ngml^-1 still gets n.

>>> class_name("O=C(O)CCCCCCC1C(=O)NC(=O)N1NCC(O)c1ccccc1 (centres unmarked) [Compound No. 34]")
"n"
>>> class_name("CCCCCC(O)C=NN1C(=O)NC(=O)C1CCCCCCC(=O)O (centres unmarked) [17/18]")
"n"
>>> class_name("O=C(O)CCCCCCC1C(=O)NC(=O)N1NCC(O)c1ccccc1 (centres unmarked) [Compound No. 33]")
"y"
>>> class_name("CCCCCC(O)C=NN1C(=O)NC(=O)C1CCCCCCC(=O)O (centres unmarked) [Compound No. 17]")
"n"

* * *

Listed next: entries and their corresponding Potency relative to PGI2.
Test system: platelet aggregation
Procedure Summary: Inhibition of platelet aggregation in human platelet-rich plasma (Born-type aggregometer, ADP or other aggregating agent)
Type: cell-based
Applied Conditions: human PRP, 1 min incubation; PGI2 = 1
Observation Type: Potency relative to PGI2

>>> readout_number("O=C(O)CCCCCCC1C(=O)NC(=O)N1NCC(O)C1CCCCC1 (stereo not drawn) [Compound No. 30]")
0.64
>>> readout_number("O=C(O)CCCCCCC1C(=O)NC(=O)N1N=CC(O)c1ccccc1 (single isomer, unassigned)")
0.53
>>> readout_number("O=C(O)CCCCCCC1C(=O)NC(=O)N1NCC(O)C1CCCCC1 (single isomer, unassigned) [compound 29]")
0.16

* * *

Listed next: entries and their corresponding IC50.
System: platelet aggregation
Procedure Summary: Inhibition of platelet aggregation in human platelet-rich plasma (Born-type aggregometer, ADP or other aggregating agent)
Type: cell-based
Applied Conditions: Homo sapiens, Platelet, 1 min, human PRP, 1 min incubation at 37°C before aggregating agent; read-out: IC50
Observation Type: IC50 (ng/mL)

>>> readout_number("O=C(O)CCCCCCC1C(=O)NC(=O)N1NCC(O)C1CCCCC1 (single isomer, unassigned) [compound 29]")
6
>>> readout_number("O=C(O)CCCCCCC1C(=O)NC(=O)N1N=CC(O)c1ccccc1 (single isomer, unassigned)")
1
>>> readout_number("O=C(O)CCCCCCC1C(=O)NC(=O)N1N=CCC1CCCCC1 (stereo not shown)")
24
>>> readout_number("O=C(O)CCCCCCC1C(=O)NC(=O)N1NCC(O)C1CCCCC1 (stereo not shown) [Compound No. 30]")
0.9
